System: M14 melanoma
protocol details: NCI tumour cell line growth inhibition, 48 h
assay readout: TGI (µM)
Answer with a number only, understood to be in µM.

Completed entries (count: 3):
compound | target of assay | assay readout | unit info | numeric result
O=S(=O)([O-])[O-].[Fe+2].[OH2+]c1c(Cl)cc(Cl)cc1/C=N/Nc1ccccn1 | M14 melanoma | TGI | µM | 7.44
Cc1cc(C)nc(NS(=O)(=O)c2ccc(Nc3nnc(/C=C/c4c(O)ccc5ccccc45)c(=O)n3N)cc2)n1 | M14 melanoma | TGI | µM | 58.5
O=C(Nc1ccccc1[N+](=O)[O-])C(=O)C(C(=O)c1ccccc1-c1ccccc1)C1OC(=O)c2ccccc21 (stereo not given) | M14 melanoma | TGI | µM | 28.9

# input Requested read-out: TGI. Entry: Cc1ccc(N(/C=C/C(=O)C(F)(F)F)CC(=O)c2ccc(Cl)c(Cl)c2)cc1
# output 18.6

# input TGI for CC(C)=CC[C@H]1C[C@@]2(CC=C(C)C)C(=O)/C(=C(/O)c3ccccc3)C(=O)[C@](CC=C(C)C)(C2=O)C1(C)C ?
# output 25.2

# input Please report the recorded TGI for CC(=O)N1N=C(c2ccc(Nc3nc(Nc4ccc(F)cc4)nc(Nc4ccc(Cl)cc4)n3)cc2)CC1c1ccc(N(C)C)cc1 (stereo not given) .
# output 10.8

# input Record request: TGI value, item C=CCN(N=O)C(=O)N(CCCCC(NC(C)=O)C(=O)NCc1ccccc1)Cc1ccccc1 (stereo not given)
# output 62.4

# input Could you tell me which TGI is on file for CCCC(CCC)Oc1ccc(CCCC2=C(O)c3ccccc3C(=O)C2=O)cc1 ?
# output 22.2

# input Reported TGI, compound CC(=O)OC1CC2C(C)(C)OC(=O)CC(OC(C)=O)[C@]2(C)C2CCC3(C)C(=CCC3c3ccoc3)[C@]12C (stereo not given in full) : ____
# output 46.5

# input Which TGI value belongs to CC(C)(C)OC(=O)NCC(=O)N(CCc1ccc(Cl)c(Cl)c1)CCN1CCCC1 ?
# output 28.6

# input # query: TGI of entry O=C(CSc1nc2ccc(I)cc2c(=O)n1Cc1ccccc1)NN1C(=O)CSC1c1ccccc1 (stereo not given)
# output 84.4

# input Recorded TGI of COc1cc(/C=C2\CC(C)C/C(=C\c3ccc(O)c(OC)c3)C2=O)ccc1O (stereo not given) , please.
# output 8.22

# input I am curious: what TGI value has been reported for C=C(CN(C)Cc1ccccc1)c1ccc(C(=O)Nc2ccccc2N)cc1 ?
# output 41.2

# input # lookup: TGI of O=C(NCCNC(=O)c1ccc(F)cc1)Nc1ccc(-n2cc(-c3ccncc3)c(-c3ccc(Cl)c(O)c3)n2)cc1
# output 1.25

# input Using the record for COc1ccc(C2N3CCCCC3[C@@H]3c4[nH]c5ccccc5c4CCN23)c(OC)c1 (stereo not given in full) , report its TGI.
# output 30.5

# input Bench note: what TGI did N#CSCC1CC(O)(c2ccccc2)CC(c2ccc(Cl)cc2)O1 (stereo not given) show?
# output 3.28

----------
Test system: DLD-1 colon
protocol details: NCI tumour cell line growth inhibition, 48 h
assay readout: TGI

Would you please look over these solved cases?
compound | TGI
O=C1COc2cc3c(cc2N1)SCCC(=O)N3 | > 100 µM
COc1cccc2c1C(=O)c1c(O)c3c(c(O)c1C2=O)C[C@@](O)(C(C)=O)C[C@@H]3OC1CC(O)C(O)C(C)O1 (stereo partly drawn) | 15.9 µM
COc1ccc(C(=O)C/C(=N/NC(N)=S)C(=O)Nc2ccccc2)cc1 | > 100 µM
Cc1cccc(Cl)c1NC(=O)c1cccc([N+](=O)[O-])c1O | > 100 µM

# input Form field: reported TGI of CCOC(=O)C1=C(C)N(NC(=O)OC)C2(N)N(NC(=O)OC)C(C)=C(C(=O)OCC)C12C#N (stereo not drawn)
# output > 100 µM

# input Give the measured TGI of O=C(Nc1ccccc1[N+](=O)[O-])C(=O)C(C(=O)c1ccccc1-c1ccccc1)C1OC(=O)c2ccccc21 (stereo not drawn) .
# output 44.8 µM

# input Item under review: CC(=O)C(N=NC1CCC(S(=O)(=O)NB2N=CS2)CC1)C(=O)Nc1ccccc1C (stereo not drawn) . Reported TGI?
# output 35.4 µM

# input I would be grateful if you could share the reported TGI for COC1C(O)CC(OC2CC(OC3CC(O[C@@H]4C(=O)c5c(cc6cc(OC7CC(OC8CC(O)C(O)C(C)O8)C(O)C(C)O7)c(C)c(O)c6c5O)C[C@H]4[C@H](OC)C(=O)[C@@H](O)[C@@H](C)O)OC(C)C3O)OC(C)C2O)OC1C (stereo partly drawn) .
# output > 100 µM

Values from PubChem BioAssay (NCI)
